Molecular target: GCase (Homo sapiens)
Construct: endogenous in cells; host or cells: HeLa cells
Sequence (P04062 40-536): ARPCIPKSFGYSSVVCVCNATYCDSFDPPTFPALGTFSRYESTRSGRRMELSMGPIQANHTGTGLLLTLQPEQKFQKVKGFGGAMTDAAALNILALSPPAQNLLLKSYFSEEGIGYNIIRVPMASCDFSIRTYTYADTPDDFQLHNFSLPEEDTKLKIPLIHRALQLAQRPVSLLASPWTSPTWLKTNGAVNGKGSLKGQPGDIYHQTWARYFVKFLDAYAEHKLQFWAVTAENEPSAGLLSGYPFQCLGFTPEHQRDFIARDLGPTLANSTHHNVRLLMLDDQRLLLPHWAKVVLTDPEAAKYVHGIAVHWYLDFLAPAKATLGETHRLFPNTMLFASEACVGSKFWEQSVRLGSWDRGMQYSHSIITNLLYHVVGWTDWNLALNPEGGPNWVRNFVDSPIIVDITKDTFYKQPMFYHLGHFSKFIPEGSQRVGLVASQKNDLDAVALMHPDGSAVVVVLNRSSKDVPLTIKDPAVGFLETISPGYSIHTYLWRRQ
Experiment: activation of GCase in a live cell PFB assay in HELA cells
Assay type: cell-based
Conditions: activation of GCase, EC50 ranges
assayEndpoint: EC50

Entry O=C1CC2(CCN1c1cnc3cnn(CC(F)F)c3n1)CN(c1ccc(C(F)(F)F)nc1)C2 ; EC50 = 10 to 50 µM

Entry Cc1nc(N2CC3(CCN(c4ncc5c(C)nn(CC(F)F)c5n4)CC3)C2)cc(C(F)(F)F)n1 ; EC50 = 10 to 50 µM

Entry FC(F)c1ccc(N2CCCC3(C2)CN(c2cncc(-c4nncs4)n2)C3)cn1 ; EC50 = 10 to 50 µM

Entry Cc1nn(CC(F)F)c2nc(N3CCC4(CCN(c5ccc(C(F)(F)F)nc5)C4)CC3)cnc12 ; EC50 = < 10 µM

Entry Cc1nc(N2CCC3(C2)CN(c2ncc4cnn(CC(F)F)c4n2)C3)cc(C(F)(F)F)n1 ; EC50 = 10 to 50 µM

Entry FC(F)Cn1ncc2ncc(N3CCC4(CCN(c5ccc(C(F)(F)F)cn5)C4)C3)nc21 (centres unmarked) ; EC50 = 10 to 50 µM

Entry O=C1CC2(CCN(c3cnc4cnn(CC(F)F)c4n3)CC2)CN1Cc1ccc(OC(F)(F)F)nc1 ; EC50 = 10 to 50 µM

Entry Cc1ncc(C(F)(F)F)nc1N1CCC2(CCN(c3cnc4cnn(CC(F)F)c4n3)CC2)C1 ; EC50 = < 10 µM

Give one value of EC50 per listed compound.
1. Cc1nc(N2CC3(CCN(c4cncc(-c5ccn(CC(F)F)n5)n4)C3)C2)cc(C(F)(F)F)n1
2. O=C1N(c2cc(C(F)F)ccn2)CCC12CCN(c1cnc3cnn(CC(F)(F)F)c3n1)CC2
3. O=C1N(Cc2cccc(C(F)(F)F)n2)CCC12CCN(c1cnc3cnn(CC(F)F)c3n1)CC2
4. FC(F)(F)c1ccc(N2CCC3(CCN(c4cncc(N5CCCC5)n4)CC3)C2)cn1
5. FC(F)(F)c1ccc(N2CCCC3(C2)CN(c2cncc(-c4nncs4)n2)C3)cn1

Reply |
1. > 100 µM
2. < 10 µM
3. < 10 µM
4. < 10 µM
5. 10 to 50 µM

Give one value of EC50 per listed compound.
1. Cc1sc(N2CC3(CCN(c4cnc5cnn(CC(F)F)c5n4)C3)C2)nc1C(F)(F)F
2. Cc1nc(N2CCC3(CCN(c4ncc5cnn(CC(F)(F)F)c5n4)C3)C2)cc(C(F)(F)F)n1 (centres unmarked)
3. O=C1N(c2cc(C(F)(F)F)ccn2)CCC12CCN(c1cncc(N3CCOCC3)n1)CC2

Reply |
> 100 µM
> 100 µM
10 to 50 µM
